These data points were gathered from patent US20100105626A1.

test system: A549 (lung cancer cell line); format: cell-based
Where no end group is shown, it is not given here.
Quantity kind: IC50 (µM)
Answers are plain numbers, in µM.

FLWWLFKWAWK-NH2 [model 28, F-L-W-W-L-F-K-W-A-W-K] : 15.9

Now look at this one.
**Q:** Look up IC50 of FLKWLFKWAKK-NH2 [model 26, F-L-K-W-L-F-K-W-A-K-K] and report it.
**A:** 14.5
